B1: LINE1-mini (parent)
chain: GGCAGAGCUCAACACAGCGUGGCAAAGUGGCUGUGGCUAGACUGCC

variants of: B1; experiment: self-cleavage, relative activity (ratio to wild type); higher = more cleavage; in vitro, sequencing; the parent is a self-cleaving ribozyme
ENDPOINT NAME: self-cleavage
Just the number, please, no unit after it.

Some solved entries appear below for comparison.
MUTATION NAME | self-cleavage
G2U G30U | 0.1
U34C G35U | 0.18
A4U C15U | 0.19
A24C G30C | 0.49
G19C G33U | 0.34
C10G U20G | 0.05
G17C A39U | 0.29
C31G G36C | 0.04

[Q] Consider the variant U38G C45U . State its measured self-cleavage.
[A] 0.05

[Q] Consider the variant U32C C37U . State its measured self-cleavage.
[A] 0.07
